# Study System: Ybr033w (UniProt P38073)
# Sequence: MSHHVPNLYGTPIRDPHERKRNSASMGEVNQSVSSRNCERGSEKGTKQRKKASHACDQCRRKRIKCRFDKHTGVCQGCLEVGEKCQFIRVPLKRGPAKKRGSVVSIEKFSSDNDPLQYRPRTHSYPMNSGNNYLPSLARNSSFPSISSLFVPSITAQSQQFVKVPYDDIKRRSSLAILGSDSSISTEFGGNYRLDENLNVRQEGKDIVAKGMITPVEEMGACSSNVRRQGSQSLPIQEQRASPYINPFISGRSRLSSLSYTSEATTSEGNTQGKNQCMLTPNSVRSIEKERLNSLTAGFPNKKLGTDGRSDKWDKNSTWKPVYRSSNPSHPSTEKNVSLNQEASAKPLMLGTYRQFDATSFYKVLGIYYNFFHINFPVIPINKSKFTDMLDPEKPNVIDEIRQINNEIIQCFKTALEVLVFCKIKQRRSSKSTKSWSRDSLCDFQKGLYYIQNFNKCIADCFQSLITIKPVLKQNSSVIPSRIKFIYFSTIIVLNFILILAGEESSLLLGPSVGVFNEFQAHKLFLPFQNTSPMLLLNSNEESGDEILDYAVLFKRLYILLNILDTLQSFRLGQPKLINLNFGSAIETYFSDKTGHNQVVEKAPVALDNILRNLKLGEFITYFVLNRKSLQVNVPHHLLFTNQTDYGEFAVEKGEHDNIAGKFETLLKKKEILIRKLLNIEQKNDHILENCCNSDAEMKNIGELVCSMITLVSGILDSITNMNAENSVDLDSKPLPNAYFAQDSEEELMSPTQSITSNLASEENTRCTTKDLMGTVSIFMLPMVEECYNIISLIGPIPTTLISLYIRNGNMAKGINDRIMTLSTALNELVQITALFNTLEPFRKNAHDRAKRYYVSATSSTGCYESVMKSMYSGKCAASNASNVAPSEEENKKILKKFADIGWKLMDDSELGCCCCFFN
# Experimental Details: PBM E-score (8-mer binding enrichment) (E-score (-0.5 to 0.5)); higher = stronger / more preferred TF binding
# Condition Details: protein concentration: 200 nM; construct: GST-full length
The full ranking holds about 33,000 sequences; the median of “E-score (-0.5 to 0.5)” is about -0.012, and the highest 2% start at about 0.29. For the sample, the highest values were picked, then their nearest neighbours and some sequences at random.
Hi all, reminder that labels come from PBM E-score, split as low: < 0.07; intermediate: ≥ 0.07 and < 0.2; high: ≥ 0.2

Class for `ATAACGAA` ?
high

Hello team, could you let me know which band the following sequence falls into: `CGGAAGAG`
low

// return the class label for `TCAATTAA`
high

Returns: class label. Input: `ACAATTAG`
low

Field: class (PBM E-score) — entry: `CGAGACCC`
low

Hi there! Could you help me figure out the category for `TATTTCGA` please?
high

Lab note: which band did `GATACCCA` land in?
low

Which of the defined bands does the recorded PBM E-score of `GATTTCAA` sit within?
intermediate

Into which category would you place `CTCATTTA` ?
intermediate

Please classify: `AGGAAGAG`
low

Exercise: read the entry `AAGAAGAA` and state which class it falls under.
intermediate

Each sequence maps to one class by PBM E-score. Which class for `CCGGAATA` ?
high

Exam item: assign `CAATGAAG` to the correct category.
low

Note: place this sequence into its band. Item: `ATCATTTC`
high

Where would `ATAGGTTC` land among the classes by reported PBM E-score?
intermediate

In plain terms, what class is `ACTTGGAC` ?
intermediate

Determine which band this sequence sits in: `ACGGAATA`
high

Hello team, could you let me know which band the following sequence falls into: `TAGAAGAA`
intermediate

Hey, which category is `CCCCTATC` in, do you know?
low

Which category does the recorded PBM E-score put `AACATAAA` in?
intermediate

// bin(item) where item = `ATAGCGGC`
low

Band for the recorded PBM E-score of `CACAAATG` ?
low

Note: place this sequence into its band. Item: `GCGGAATA`
high

Assign a bin to `AGGAAGAT`
high

Kindly identify the class of `CTAAATGC` .
intermediate

Which bin, given its PBM E-score, does `TATTTCAA` occupy?
high

Pick a category. Item: `GACATATA`
intermediate

Category of `CAGCATAG` , please.
low

Each sequence maps to one class by PBM E-score. Which class for `AATGTGAA` ?
high

Which band does `TGGAAGAA` fall in?
high

Which PBM E-score category applies to `ATGCGTGG` here?
low

Kindly identify the class of `CGGGAATA` .
high
